Target: T1, Nbp2, Q12163
T1 sequence (Q12163 103-180, looked up): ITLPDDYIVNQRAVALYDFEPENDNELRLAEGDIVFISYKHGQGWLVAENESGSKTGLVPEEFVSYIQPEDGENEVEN
Assay: SPOT array
Conditions: median of control spots 357
Attribute: SPOT intensity
Note: the reply should be a number with no unit written.

Worked set:
binder	numeric value
QTMRQAPKRPDADVA	989
PSRRAPLQLPQLVNK	0
FFRRSELYLPNSSKA	14

Problem: What value of SPOT intensity has been recorded for this entry: NLDRSKISLPDFDDE
Result: 6

Problem: What value of SPOT intensity has been recorded for this entry: SRSKPLPLTPNSKYN
Result: 0

Problem: What value of SPOT intensity has been recorded for this entry: TPEIPPPLPPKIMVH
Result: 0

Problem: What value of SPOT intensity has been recorded for this entry: ISNFVPPNLPMRRFK
Result: 1

Problem: What value of SPOT intensity has been recorded for this entry: VPVAPPPPPASLGQS
Result: 0

Problem: What value of SPOT intensity has been recorded for this entry: ANNQGPPNLPARDKS
Result: 0
